In this section we review reported Z-AUC values for a set of compounds.
- assay: qHTS drug screen for cell cycle checkpoint inhibitors in PARPi-resistant BRCA-mutant ovarian cancer cell lines. (AID 1963452)
- condition_info: PEO1/OlaR viability, CellTiter-Glo luminescence, 96 h; measured here: PEO4 Z-AUC; stronger effect = lower value
Reply with the value as a number alone.

COc1ccc2[nH]cc(CCNC(C)=O)c2c1; 1.13
OCCN1CCN(CCCN2c3ccccc3Sc3ccc(C(F)(F)F)cc32)CC1; 0.195
CN(C)CCOC(c1ccccc1)c1ccccc1; -0.44
CN(C)C(=O)C(CCN1CCC(O)(c2ccc(Cl)cc2)CC1)(c1ccccc1)c1ccccc1; -0.794
CN1CCN(C2=Nc3cc(Cl)ccc3Nc3ccccc32)CC1; 0.32
COc1ccc2c(c1)c(CC(=O)O)c(C)n2C(=O)c1ccc(Cl)cc1; 0.536
COc1ccc(CCN(C)CCCC(C#N)(c2ccc(OC)c(OC)c2)C(C)C)cc1OC (centres undefined); 1.08
CCCCc1oc2ccccc2c1C(=O)c1cc(I)c(OCCN(CC)CC)c(I)c1; -0.00161

Q) # query: Z-AUC of entry `CN1CCC(=C2c3ccccc3C=Cc3ccccc32)CC1`
A) 0.739

Q) # query: Z-AUC of entry `Nc1c2c(nc3ccccc13)CCCC2`
A) 1.21

Q) # query: Z-AUC of entry `CS(=O)(=O)Nc1ccc([N+](=O)[O-])cc1Oc1ccccc1`
A) 1.35

Q) # query: Z-AUC of entry `C[C@](N)(Cc1ccc(O)c(O)c1)C(=O)O`
A) 1.22

Q) # query: Z-AUC of entry `CCC1(c2ccccc2)C(=O)NCNC1=O`
A) 1.04

Q) # query: Z-AUC of entry `O=c1[nH]cc(F)c(=O)[nH]1`
A) 0.136

Q) # query: Z-AUC of entry `CS(=O)(=O)CCNCc1ccc(-c2ccc3ncnc(Nc4ccc(OCc5cccc(F)c5)c(Cl)c4)c3c2)o1`
A) 0.473

Q) # query: Z-AUC of entry `O=C(Nc1ccc([N+](=O)[O-])cc1Cl)c1cc(Cl)ccc1O`
A) -1.03

Q) # query: Z-AUC of entry `CC(C)(C)C(=O)Oc1ccc(S(=O)(=O)Nc2ccccc2C(=O)NCC(=O)O)cc1`
A) 1.16

Q) # query: Z-AUC of entry `CCOC(=O)Nc1ccc(NCc2ccc(F)cc2)nc1N`
A) -0.051

Q) # query: Z-AUC of entry CC(COc1ccccc1)N(CCCl)Cc1ccccc1 (centres undefined)
A) 1.15

Q) # query: Z-AUC of entry `N[C@@H](Cc1c[nH]c2ccc(O)cc12)C(=O)O`
A) -0.162

Q) # query: Z-AUC of entry `Cn1c(=O)c2[nH]cnc2n(C)c1=O`
A) 0.784

Q) # query: Z-AUC of entry `CN(C)c1nc(N(C)C)nc(N(C)C)n1`
A) 0.807

Q) # query: Z-AUC of entry `Cc1cc(C(C)(C)C)c(O)c(C)c1CC1=NCCN1`
A) 0.695

Q) # query: Z-AUC of entry NC(CO)C(=O)NNCc1ccc(O)c(O)c1O (centres undefined)
A) -0.375
